Assign IC50 to each entry below.
- target desc: GLUT3 (Homo sapiens, UniProt P11169)
- Construct: endogenous in cells; host or cells: DLD1 GLUT1−/− (knock-out) cancer cells
- Sequence (P11169 1-496): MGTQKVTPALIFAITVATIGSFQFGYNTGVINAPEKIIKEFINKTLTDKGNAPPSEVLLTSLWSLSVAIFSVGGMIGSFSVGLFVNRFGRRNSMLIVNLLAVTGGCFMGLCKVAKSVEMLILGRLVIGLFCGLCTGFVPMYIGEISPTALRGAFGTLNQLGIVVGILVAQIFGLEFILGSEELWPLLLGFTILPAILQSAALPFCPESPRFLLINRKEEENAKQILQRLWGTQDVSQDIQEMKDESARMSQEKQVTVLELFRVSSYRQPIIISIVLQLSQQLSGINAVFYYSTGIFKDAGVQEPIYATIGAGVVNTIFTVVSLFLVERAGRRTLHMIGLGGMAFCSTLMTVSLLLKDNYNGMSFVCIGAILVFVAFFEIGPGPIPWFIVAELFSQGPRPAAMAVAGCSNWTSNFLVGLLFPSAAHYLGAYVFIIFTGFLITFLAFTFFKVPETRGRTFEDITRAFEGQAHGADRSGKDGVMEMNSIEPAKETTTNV
- assay info: glycolysis assay in DLD1 GLUT1−/− cells (rely on GLUT3)
- Assay type: cell-based
- experimental parameters: DLD1-KO (GLUT1−/−) cells; 10 μM oligomycin, one hour
One number for each entry, in nM.

COc1ccc2nc(-c3cccc(OCC(=O)NCC(F)(F)F)c3)nc(Nc3ccc(-c4cn[nH]c4)cc3)c2c1 [Ex. 25] : 68.4

// batch mode: one IC50 value per listed entry
1. CC[C@H](C)NC(=O)COc1cccc(-c2nc(Nc3ccc(-c4cn[nH]c4)cc3)c3cc(OC)ccc3n2)c1 [Ex. 48]
2. CCCOc1ccc2nc(-c3cccc(OCC(=O)NC(C)C)c3)nc(Nc3ccc(-c4cn[nH]c4)cc3)c2c1 [Ex. 32]
3. CCOc1ccc2nc(-c3cccc(OCC(=O)NC4CCCC4)c3)nc(Nc3ccc(-c4cn[nH]c4)cc3)c2c1 [Ex. 5]
4. COc1ccc2nc(-c3cccc(OCC(=O)NCC(C)C)c3)nc(Nc3ccc(-c4cn[nH]c4)cc3)c2c1 [Ex. 14]
5. CCOc1ccc2nc(-c3cccc(OCC(=O)NC(CC)CC)c3)nc(Nc3ccc(-c4cn[nH]c4)cc3)c2c1 [Ex. 7]
6. CCOc1ccc2nc(-c3cccc(OCC(=O)NC(C)(C)C)c3)nc(Nc3ccc(-c4cc[nH]n4)cc3)c2c1 [Ex. 27]

A)
1. 110
2. 305
3. 104
4. 134
5. 233
6. 116

###

- target desc: GLUT1 (Homo sapiens, UniProt P11166)
- Construct: endogenous in cells; host or cells: DLD1 WT cancer cells
- Sequence (P11166 whole entry): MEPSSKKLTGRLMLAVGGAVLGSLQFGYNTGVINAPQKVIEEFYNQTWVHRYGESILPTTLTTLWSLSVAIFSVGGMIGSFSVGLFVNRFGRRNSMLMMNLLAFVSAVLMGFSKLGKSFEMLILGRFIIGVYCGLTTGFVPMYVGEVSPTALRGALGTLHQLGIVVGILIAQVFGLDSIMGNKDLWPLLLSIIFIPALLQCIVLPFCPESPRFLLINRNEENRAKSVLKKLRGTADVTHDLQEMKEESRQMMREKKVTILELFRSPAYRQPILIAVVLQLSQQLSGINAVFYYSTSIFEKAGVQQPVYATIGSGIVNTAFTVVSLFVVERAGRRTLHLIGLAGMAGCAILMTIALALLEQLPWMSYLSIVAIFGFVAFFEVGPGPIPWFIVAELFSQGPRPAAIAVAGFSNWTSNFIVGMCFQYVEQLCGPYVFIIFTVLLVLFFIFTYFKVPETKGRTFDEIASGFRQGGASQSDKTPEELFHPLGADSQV
- assay info: glycolysis assay in DLD1 WT cells (rely on GLUT1)
- Format: cell-based
- experimental parameters: DLD1-WT cells; 10 μM oligomycin, one hour
Each record is given yes (1) if its reported IC50 is strictly below 100 nM. Records at or above 100 nM are given no (0).

COc1ccc2nc(-c3cccc(OCC(=O)NC(C)C)c3)nc(Nc3ccc(-c4cn[nH]c4)cc3)c2c1 : no (0)
CCOc1ccc2nc(-c3cccc(OCC(=O)NC(C)(C)C)c3)nc(Nc3ccc(-c4cc[nH]n4)cc3)c2c1 : no (0)
CCOc1ccc2nc(-c3cccc(OCC(=O)NC(C)(C)CC)c3)nc(Nc3ccc(-c4cn[nH]c4)cc3)c2c1 : yes (1)
CCOc1ccc2nc(-c3cccc(OCC(=O)NC4CC(F)(F)C4)c3)nc(Nc3ccc(-c4cn[nH]c4)cc3)c2c1 : no (0)
CC[C@@H](C)NC(=O)COc1cccc(-c2nc(Nc3ccc(-c4cn[nH]c4)cc3)c3cc(OCCOC)ccc3n2)c1 : yes (1)

Let us examine a further case.
Q) Item `CCOc1ccc2nc(-c3cccc(OCC(=O)N[C@@H](C)CC)c3)nc(Nc3ccc(-c4cn[nH]c4)cc3)c2c1` : IC50 beneath 100 nM, strictly?
A) no (0)

###

Assign IC50 to each entry below.
- target desc: GLUT3 (Homo sapiens)
- Construct: endogenous in cells; host or cells: DLD1 GLUT1−/− (knock-out) cancer cells
- Sequence (P11169 1-496): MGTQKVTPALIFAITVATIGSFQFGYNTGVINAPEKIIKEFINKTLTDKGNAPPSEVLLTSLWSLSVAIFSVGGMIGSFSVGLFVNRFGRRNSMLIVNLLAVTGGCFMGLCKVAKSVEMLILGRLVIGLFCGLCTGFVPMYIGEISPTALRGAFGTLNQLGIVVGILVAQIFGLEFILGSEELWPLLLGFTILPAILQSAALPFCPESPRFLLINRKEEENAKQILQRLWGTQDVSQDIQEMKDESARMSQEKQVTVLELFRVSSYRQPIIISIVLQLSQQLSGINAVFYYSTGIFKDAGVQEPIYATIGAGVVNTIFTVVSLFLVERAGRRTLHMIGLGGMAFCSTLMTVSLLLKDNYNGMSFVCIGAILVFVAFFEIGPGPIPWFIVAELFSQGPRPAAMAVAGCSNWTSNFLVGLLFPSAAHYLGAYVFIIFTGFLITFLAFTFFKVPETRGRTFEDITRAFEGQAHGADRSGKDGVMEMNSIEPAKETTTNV
- assay info: glycolysis assay in DLD1 GLUT1−/− cells (rely on GLUT3)
- Assay type: cell-based
- experimental parameters: DLD1-KO (GLUT1−/−) cells; 10 μM oligomycin, one hour
Numbers only, in nM.

CC[C@H](C)NC(=O)COc1cccc(-c2nc(Nc3ccc(-c4cn[nH]c4)cc3)c3cc(OCCOC)ccc3n2)c1 [Ex. 45] : 40.6
CCC(C)NC(=O)COc1cccc(-c2nc(Nc3ccc(-c4cn[nH]c4)cc3)c3ccc(F)cc3n2)c1 (stereo not shown) [Ex. 53] : 271
CC(C)NC(=O)COc1cccc(-c2nc(Nc3ccc(-c4cn[nH]c4)cc3)c3cc(OCCF)ccc3n2)c1 [Ex. 40] : 68.3
CCC(C)NC(=O)COc1cccc(-c2nc(Nc3ccc(-c4cn[nH]c4)cc3)c3cc(F)ccc3n2)c1 (stereo not shown) [Ex. 44] : 159
CC[C@H](C)NC(=O)COc1cccc(-c2nc(Nc3ccc(-c4cn[nH]c4)cc3)c3cc(F)ccc3n2)c1 [Ex. 47] : 133
CC[C@H](C)NC(=O)COc1cccc(-c2nc(Nc3ccc(-c4cn[nH]c4)cc3)c3cc(OCCF)ccc3n2)c1 [Ex. 46] : 87

// switching to the query molecule
Q) Requested read-out: IC50. Entry: COc1ccc2nc(-c3cccc(OCC(=O)NC(C)C)c3)nc(Nc3ccc(-c4cn[nH]c4)cc3F)c2c1 [Ex. 20]
A) 177

###

- target desc: GLUT3 (Homo sapiens, UniProt P11169)
- Construct: endogenous in cells; host or cells: DLD1 GLUT1−/− (knock-out) cancer cells
- assay info: glycolysis assay in DLD1 GLUT1−/− cells (rely on GLUT3)
- Format: cell-based
- experimental parameters: DLD1-KO (GLUT1−/−) cells; 10 μM oligomycin, one hour
Each record is given True if its reported IC50 is strictly below 100 nM. Records at or above 100 nM are given False.

Reference set, count: 2
COCCOc1ccc2nc(-c3cccc(OCC(=O)NC(C)(C)C)c3)nc(Nc3ccc(-c4cn[nH]c4)cc3)c2c1 : True
COCCOc1ccc2nc(-c3cccc(OCC(=O)NC(C)C)c3)nc(Nc3ccc(-c4cn[nH]c4)cc3)c2c1 : True

Q) Item `CCCNC(=O)COc1cccc(-c2nc(Nc3ccc(-c4cn[nH]c4)cc3)c3cc(OC)ccc3n2)c1` : IC50 beneath 100 nM, strictly?
A) False

Q) Also check `CCOc1ccc2nc(-c3cccc(OCC(=O)NC(C)(C)C)c3)nc(Nc3ccc(-c4cn[nH]c4)cc3)c2c1`
A) True

Q) Also check `CC(C)NC(=O)COc1cccc(-c2nc(Nc3ccc(-c4cn[nH]c4)cc3)c3cc(OC(C)C)ccc3n2)c1`
A) False

Q) Also check `CCOc1ccc2nc(-c3cccc(OCC(=O)NCC(C)C)c3)nc(Nc3ccc(-c4cn[nH]c4)cc3)c2c1`
A) True

Q) Also check `CCOc1ccc2nc(-c3cccc(OCC(=O)NC(C)(C)CC)c3)nc(Nc3ccc(-c4cn[nH]c4)cc3)c2c1`
A) False

###

- target desc: GLUT3 (Homo sapiens)
- Construct: endogenous in cells; host or cells: DLD1 GLUT1−/− (knock-out) cancer cells
- assay info: glycolysis assay in DLD1 GLUT1−/− cells (rely on GLUT3)
- Assay type: cell-based
- experimental parameters: DLD1-KO (GLUT1−/−) cells; 10 μM oligomycin, one hour
readout label: IC50 (nM)
One number for each entry, in nM.

A selection of reference data follows.
CC(C)(C)NC(=O)COc1cccc(-c2nc(Nc3ccc(-c4cn[nH]c4)cc3)c3cc(F)ccc3n2)c1 : 142
CCOc1ccc2nc(-c3cccc(OCC(=O)NC(C)C)c3)nc(Nc3ccc(-c4cc[nH]n4)cc3)c2c1 : 105
CCC(C)NC(=O)COc1cccc(-c2nc(Nc3ccc(-c4cn[nH]c4)cc3)c3cc(OC)ccc3n2)c1 (stereo not drawn) : 66.8
CCOc1ccc2nc(-c3cccc(OCC(=O)N[C@@H](C)CC)c3)nc(Nc3ccc(-c4cn[nH]c4)cc3)c2c1 : 94.2
CCOc1ccc2nc(-c3cccc(OCC(=O)NC(C)C)c3)nc(Nc3ccc(-c4cn[nH]c4)cc3F)c2c1 : 248

// batch mode: one IC50 value per listed entry
1. CC[C@@H](C)NC(=O)COc1cccc(-c2nc(Nc3ccc(-c4cn[nH]c4)cc3)c3cc(OCCOC)ccc3n2)c1
2. CC(C)(C)NC(=O)COc1cccc(-c2nc(Nc3ccc(-c4cn[nH]c4)cc3)c3ccc(F)cc3n2)c1

A)
1: 50.9; 2: 195

// batch mode: one IC50 value per listed entry
1. CCOc1ccc2nc(-c3cccc(OCC(=O)NC4CCC4)c3)nc(Nc3ccc(-c4cn[nH]c4)cc3)c2c1
2. COc1ccc2nc(-c3cccc(OCC(=O)NC(C)(C)C)c3)nc(Nc3ccc(-c4cn[nH]c4)cc3)c2c1

A)
120
38.9

// batch mode: one IC50 value per listed entry
1. CC[C@@H](C)NC(=O)COc1cccc(-c2nc(Nc3ccc(-c4cn[nH]c4)cc3)c3cc(OC)ccc3n2)c1
2. CC[C@@H](C)NC(=O)COc1cccc(-c2nc(Nc3ccc(-c4cn[nH]c4)cc3)c3cc(OCCF)ccc3n2)c1
3. COc1ccc2nc(-c3cccc(OCC(=O)NC4CC(F)(F)C4)c3)nc(Nc3ccc(-c4cn[nH]c4)cc3)c2c1
4. COc1ccc2nc(-c3cccc(OCC(=O)NC(CF)CF)c3)nc(Nc3ccc(-c4cn[nH]c4)cc3)c2c1
5. CC[C@@H](C)NC(=O)COc1cccc(-c2nc(Nc3ccc(-c4cn[nH]c4)cc3)c3ccc(F)cc3n2)c1
6. CCOc1ccc2nc(-c3cccc(OCC(=O)N[C@H](C)CC)c3)nc(Nc3ccc(-c4cn[nH]c4)cc3)c2c1

A)
118
72.1
86.6
110
238
130
